Provenance of the data: the Human Domainome abundance scans (Beltran et al. 2025)

Provide the reported abundance fitness of each item.
B1: Cyclin-F, residues 28 to 80; numbered along this chain, P41002 (parent)
chain: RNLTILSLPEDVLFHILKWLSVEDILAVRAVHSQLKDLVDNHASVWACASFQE

Variants of: B1
Assay: abundance fitness (aPCA) (normalised: wild type 0, dead -1); higher = more abundant; growth selection in yeast, the domain comes from the species named
Conditions: Homo sapiens
Reply briefly: the number, and no unit.

Enquiry: Query abundance fitness for C48P
Return: 0.42

Enquiry: Query abundance fitness for K18R
Return: -0.14

Enquiry: Query abundance fitness for L17T
Return: -0.63

Enquiry: Query abundance fitness for I5H
Return: -0.771

Enquiry: Query abundance fitness for A49Y
Return: -0.341

Enquiry: Query abundance fitness for H32C
Return: 0.209

Enquiry: Query abundance fitness for V22C
Return: -0.286

Enquiry: Query abundance fitness for V45L
Return: -0.076

Enquiry: Query abundance fitness for D11Q
Return: -0.049

Enquiry: Query abundance fitness for V31I
Return: -0.594

Enquiry: Query abundance fitness for T4R
Return: -0.735

Enquiry: Query abundance fitness for S21E
Return: -0.092

Enquiry: Query abundance fitness for L6P
Return: -0.674
